Each recorded value in this set is attributed to the supplement of paper PMC10567573.

B1: TRIM43 (parent)
chain: YQEIFQQLQRSWVKMDQKSKHLKE

Variants of: B1
procedure.summary: protein stability index of a GFP-peptide fusion (GPS, HEK-293T) (PSI 1-6); higher = more stable;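 further: lentivirally expressed fusions sorted by FACS into six bins by GFP to DsRed ratio, PSI derived from sequencing read proportions per bin multiplied by bin number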
protocol.conditions: c terminus: a fixed tail appended
Could you label it Fulfilled if measured protein stability index is 2 or higher, and Not fulfilled otherwise?

change	answer.label
E24D	Fulfilled
I4E	Not fulfilled
S19Q	Fulfilled
Q2M	Not fulfilled
W12G	Fulfilled
V13I	Fulfilled
H21T	Fulfilled
E3F	Not fulfilled
L8H	Fulfilled
Q2L	Not fulfilled
